All values here come from patent US20210290597A1.

# system-under-test: human transporter OAT3 (Homo sapiens)
# Construct: expressed in transfected cells; host or cells: MDCK-II
# Sequence (Q8TCC7 1-542): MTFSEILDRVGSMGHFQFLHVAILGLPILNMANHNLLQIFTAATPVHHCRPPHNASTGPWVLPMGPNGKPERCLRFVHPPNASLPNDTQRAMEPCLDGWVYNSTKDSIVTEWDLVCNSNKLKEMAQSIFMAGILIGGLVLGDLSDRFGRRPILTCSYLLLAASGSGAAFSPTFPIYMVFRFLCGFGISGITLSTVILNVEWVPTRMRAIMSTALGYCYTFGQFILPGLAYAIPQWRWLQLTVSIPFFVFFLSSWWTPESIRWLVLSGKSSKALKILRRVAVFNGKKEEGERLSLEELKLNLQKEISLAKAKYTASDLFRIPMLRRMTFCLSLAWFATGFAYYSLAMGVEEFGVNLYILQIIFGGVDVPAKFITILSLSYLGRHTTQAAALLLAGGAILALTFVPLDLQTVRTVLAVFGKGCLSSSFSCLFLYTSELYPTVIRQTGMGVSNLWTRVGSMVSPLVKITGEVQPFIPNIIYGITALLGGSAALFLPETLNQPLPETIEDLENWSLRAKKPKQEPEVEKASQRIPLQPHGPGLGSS
# assay-comment: Further OAT3 uptake inhibition assay (Table 2)
# Assay type: cell-based
# measurement-parameters: 0.1 μM E3S; compound 0.03-10 μM; read-out: OAT3 inhibition substrate = E3S (IC50)
Please respond with reported IC50 for every item in the list.
Give bare numbers, in µM.

For the molecule shown here, CSc1nncn1-c1ccc(S(=O)(=O)c2ccc(Cl)c(C(F)(F)F)c2)cc1 [Compound 26] , give the reported IC50.
8.63

For the molecule shown here, O=S(=O)(c1ccc(-n2cn[nH]c2=S)c(N2CCOCC2)c1)c1ccc(Cl)c(C(F)(F)F)c1 [Compound 2] , give the reported IC50.
1.9

Moving on to the next molecule.
For the molecule shown here, O=S(=O)(c1ccc(-n2cn[nH]c2=S)cc1)c1ccc(Cl)c(C(F)(F)F)c1 [Compound 1] , give the reported IC50.
0.891

----------
# system-under-test: OAT3 (Homo sapiens, UniProt Q8TCC7)
# Construct: expressed in transfected cells; host or cells: MDCK-II
# assay-comment: Further OAT3 uptake inhibition assay (Table 2)
# Assay type: cell-based
# measurement-parameters: human, MDCK-II cells expressing human OAT3, probe 10 μM PAH (p-aminohippurate); compound 1 μM; PAH 10 μM; mean and SD of triplicate
measured-endpoint: inhibition at 1 μM (%)
Numbers only, in %.

Lab note: each compound below needs its inhibition at 1 μM filled in.
1. O=S(=O)(c1ccc(-n2cc[nH]c2=S)cc1)c1ccc(Cl)c(C(F)(F)F)c1 [Compound 31]
2. COc1cccc(S(=O)(=O)c2ccc(-n3cn[nH]c3=S)cc2)c1 [Compound 12]
3. O=c1[nH]ccn1-c1ccc(S(=O)(=O)c2ccc(Cl)c(C(F)(F)F)c2)cc1 [Compound 32]
4. O=S(=O)(c1ccc(-n2cn[nH]c2=S)cc1)c1cccc(C(F)(F)F)c1 [Compound 11]
5. CCN(CC)c1cc(S(=O)(=O)c2ccc(Cl)c(C(F)(F)F)c2)ccc1-n1cn[nH]c1=S [Compound 21]
6. O=S(=O)(c1ccccc1)c1ccc(-n2cn[nH]c2=S)cc1 [Compound 3]
7. CCOCCOc1cc(S(=O)(=O)c2ccc(Cl)c(C(F)(F)F)c2)ccc1-n1cn[nH]c1=S [Compound 22]

1: -1.05; 2: 48.4; 3: -9.18; 4: 58.6; 5: 48.2; 6: 33.1; 7: 79.5

For the compound shown here, CN(C)c1cccc(S(=O)(=O)c2ccc(-n3cn[nH]c3=S)cc2)c1 [Compound 15] , give the reported inhibition at 1 μM.
60.1
